measurement target: Human L1CAM (purified protein) (human) (UniProt P32004)
assay overview: competitive ELISA; antibody pre-incubated with soluble human L1CAM, free antibody detected on coated human L1CAM
quantity: Affinity (K)

For the binder Ab5D12 antibody (antibody, human IgG1, kappa, V domains shown, Whole human IgG1, kappa; also called Anti-L1CAM ("Ab5D12"); Ab5D12 mutant) VH: EVQLVESGGGVVQPGGSLRLSCAASGFTFSRFGMHWVRQAPGKGLEWVAFISNEGSNKYYADSVKGRFTISRDNSANTLYLQMNSLRAEDTAVYYCARGRAYGSGSLFDPWGQGTLVTVSS VL: DIQLTQSPSSLSASVGDRVTITCRASRTISSYVNWYRQRPGKAPESLIYAASNLHSGVPSRFSGSGSGTDFTLTISSLQPEDFATYYCQQSLVWYPWTFGQGTKLEIKR , report Affinity (K).
120 pM
